target: BTK-WT (Homo sapiens, UniProt Q06187); construct: purified from insect cells as a full-length construct containing an N-terminal 6X-His tag; His6 (N); made in house; host or cells: insect cells (baculovirus Sf21 in Method B); test: Btk in vitro inhibitory activity (one of Method A TR-FRET, Method B electrophoretic mobility shift, Method C radiometric filter binding); type: biochemical; conditions: D-compounds panel data; read-out: IC50 BTK-WT
Sequence (Q06187 whole entry): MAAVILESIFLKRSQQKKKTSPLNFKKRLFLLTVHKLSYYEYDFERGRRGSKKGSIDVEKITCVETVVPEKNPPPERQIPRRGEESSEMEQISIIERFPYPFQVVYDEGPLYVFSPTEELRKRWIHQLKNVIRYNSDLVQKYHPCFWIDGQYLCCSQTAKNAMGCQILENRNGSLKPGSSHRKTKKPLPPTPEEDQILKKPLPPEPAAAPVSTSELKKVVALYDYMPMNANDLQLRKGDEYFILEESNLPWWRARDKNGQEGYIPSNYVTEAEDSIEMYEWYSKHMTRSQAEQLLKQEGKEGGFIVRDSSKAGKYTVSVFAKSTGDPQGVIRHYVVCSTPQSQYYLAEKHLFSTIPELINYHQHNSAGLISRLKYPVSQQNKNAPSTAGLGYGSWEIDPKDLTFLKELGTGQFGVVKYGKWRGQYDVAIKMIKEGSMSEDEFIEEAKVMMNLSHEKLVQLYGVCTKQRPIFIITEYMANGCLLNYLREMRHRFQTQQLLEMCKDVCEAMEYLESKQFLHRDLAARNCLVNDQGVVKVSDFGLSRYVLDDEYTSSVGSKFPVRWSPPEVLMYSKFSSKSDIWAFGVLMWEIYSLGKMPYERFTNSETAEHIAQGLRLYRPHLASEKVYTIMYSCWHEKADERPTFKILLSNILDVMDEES
pIC50: −log10 of the molar value.
Quantity kind: pIC50

The cases that follow already have their pIC50 on record.
Cn1cc(Nc2nc(N3CCC(NC(=O)c4ccc(C5CC5)cc4)C(O)C3)cnc2C(N)=O)cn1 (single isomer, unassigned) [Example D-28]    5.00 to 6.00
C[C@@H]1[C@H](NC(=O)c2ccc(C3CC3)nc2)CCCN1c1cnc(C(N)=O)c(Nc2ccc(OC3CCN(C)CC3)cc2)n1 [Example D-294]    ≥ 8.00

Next up:
// C[C@@H]1[C@H](NC(=O)c2coc(C3CC3)n2)CCCN1c1cnc(C(N)=O)c(Nc2cnn(C)c2)n1 [Example D-257] : pIC50 value = ≥ 8.00

FYI, the data here is from patent US20210070748A1.
